- ASSAY_SYSTEM: recombinant human Lp-PLA2 (Homo sapiens, UniProt Q13093)
- ASSAY_INFO: Recombinant human Lp-PLA2 assay (rhLp-PLA2, PED6 assay)
- Assay type: biochemical
- CONDITIONS: read-out: rhLp-PLA2 (PED6 assay) (pIC50) (converted)
PROPERTY_NAME: IC50 (nM)

(1) CC(C)Oc1c(F)cc(COc2cc3n(c(=O)n2)CC[C@@H](C)N3C)cc1F [E82]
(2) C[C@@H]1CCn2c(cc(OCc3cc(F)c(F)c(F)c3)nc2=O)N1 [E29]
(3) C[C@H]1CCn2c(cc(OCc3cc(F)c(Oc4cccc(C(F)(F)F)c4)c(F)c3)nc2=O)N1C [E62]
(4) CC(C)Oc1ccc(COc2cc3n(c(=O)n2)CC[C@@H](C)N3C)cc1F [E51]
(5) CC1CCn2c(cc(OCc3cc(F)c(F)c(F)c3)nc2=O)N1C (stereo not drawn) [E8]
Request: Sort the listed entries by IC50, smallest first. State the ranking by listing the labels in the requested order.
Response: 1, 5, 2, 3, 4
(1: 0.126 nM, 5: 0.398 nM, 2: 1.26 nM, 3: 3.98 nM, 4: 50.1 nM)

(a) C[C@@H]1CCn2c(cc(OCc3ccc(Oc4cnc(C(F)(F)F)nc4)c(F)c3)nc2=O)N1C [E110]
(b) CC1CCn2c(cc(OCc3cc(F)c(Oc4cccc(F)c4)c(F)c3)nc2=O)N1 (stereo not drawn) [E5]
Request: I need your help: which of the pair a , b has higher IC50? State the label of the item chosen.
Response: a
(a: 0.631 nM, b: 0.398 nM)

(A) CC1CCn2c(cc(OCc3ccc(F)c(F)c3)nc2=O)N1 (stereo not drawn) [E4]
(B) C[C@H]1CCn2c(cc(OCc3ccc(Oc4cnc(C(F)(F)F)nc4)c(F)c3)nc2=O)N1C [E107]
Request: Field: lower IC50 | Options: A / B Selection: enter the item's label.
Response: B
(B: 0.398 nM, A: 3.16 nM)

###

- ASSAY_SYSTEM: Lp-PLA2 in human plasma (Homo sapiens, UniProt Q13093)
- Construct: from tissue; host or cells: pooled human plasma
- Sequence (Q13093 22-441): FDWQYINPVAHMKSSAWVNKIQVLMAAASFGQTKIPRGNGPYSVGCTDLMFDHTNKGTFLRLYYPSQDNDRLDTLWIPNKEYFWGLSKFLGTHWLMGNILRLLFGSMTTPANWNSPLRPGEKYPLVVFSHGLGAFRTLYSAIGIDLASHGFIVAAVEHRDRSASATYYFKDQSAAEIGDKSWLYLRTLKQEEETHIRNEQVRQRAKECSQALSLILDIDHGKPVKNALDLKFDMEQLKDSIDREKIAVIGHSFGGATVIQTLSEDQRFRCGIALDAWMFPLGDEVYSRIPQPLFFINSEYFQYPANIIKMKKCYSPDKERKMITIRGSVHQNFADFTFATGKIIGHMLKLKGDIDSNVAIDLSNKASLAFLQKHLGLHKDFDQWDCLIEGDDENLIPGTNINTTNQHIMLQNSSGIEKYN
- ASSAY_INFO: Lp-PLA2 human plasma assay (Thio-PAF assay)
- Format: biochemical
- CONDITIONS: pooled human plasma; read-out: pIC50 values in the thio-PAF assay (converted)
Each item that follows carries a reported IC50.

• C[C@H]1CCn2c(cc(OCc3ccc(Oc4ccc(F)cc4)c(C#N)c3)nc2=O)N1C = ≤ 100 nM
• C[C@H]1CCn2c(cc(OCc3ccc(Oc4ccc(C(F)(F)F)cc4)c(C#N)c3)nc2=O)N1C = ≤ 10 nM
• C[C@H]1CCn2c(cc(OCc3ccc(Oc4cccc(C(F)(F)F)c4)c(F)c3)nc2=O)N1C = ≤ 10 nM
• C[C@H]1CCn2c(cc(OCc3cc(F)c(Oc4ccc(Cl)cc4)c(F)c3)nc2=O)N1C = ≤ 100 nM
• C[C@H]1CCn2c(cc(OCc3cc(F)c(Oc4cccc(Cl)c4)c(F)c3)nc2=O)N1C = ≤ 100 nM
• CN1c2cc(OCc3ccc(F)cc3)nc(=O)n2CCC1(C)C = ≤ 10 nM
• C[C@@H]1CCn2c(cc(OCc3ccc(F)c(F)c3)nc2=O)N1 = ≤ 100 nM
• C[C@H]1CCn2c(cc(OCc3ccc(F)c(F)c3)nc2=O)N1C = ≤ 100 nM

Request: Record request: IC50 value, item C[C@@H]1CCn2c(cc(OCc3cc(F)c(Oc4ccc(F)c(F)c4)c(F)c3)nc2=O)N1C
Response: ≤ 10 nM
